B1: NETO1 (parent)
chain: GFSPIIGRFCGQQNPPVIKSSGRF

# Variants of: B1
# experiment_description: protein stability index of a GFP-peptide fusion (GPS, HEK-293T) (PSI 1-6); higher = more stable;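 also: lentivirally expressed fusions sorted by FACS into six bins by GFP to DsRed ratio, PSI derived from sequencing read proportions per bin multiplied by bin number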
# measurement_context: c terminus: a fixed tail appended
Label scheme for protein stability index: lower than 2 is -1, 2 and above is 1.

For orientation, consider the following solved cases.
S20C: 1
Q13Y: 1
R23H: -1
S3K: 1
C10L: 1

Exam item: Reported protein stability index reaches at least 2 for "Q13K" ?
Marked response: -1

Exam item: Reported protein stability index reaches at least 2 for "P15N" ?
Marked response: 1

Exam item: Reported protein stability index reaches at least 2 for "N14V" ?
Marked response: -1

Exam item: Reported protein stability index reaches at least 2 for "R23P" ?
Marked response: 1

Exam item: Reported protein stability index reaches at least 2 for "P16M" ?
Marked response: 1
